Source of measurements: patent US20210395718A1

testDetails: Thermal stability: residual activity after incubation at 60° C. for one hour
Format: biochemical
conditions: crude recombinant enzyme; after incubation at 60° C. for 1 hour
Kindly supply the reported Residual activity (%) values for the records listed here.
I only need the number, in %, no unit after it.

Look up Residual activity (%) for this molecule: Ketose 3-epimerase mutant 31: amino acid-substituted mutant of SEQ ID NO: 1 (protein, Arthrobacter histidinolovorans) MKIGCHGLVWTGRFDAEGIRYSVQKTKEAGFDLIEFPLMDPFSFDVATAKSALAEHGLTASASLGLSEATDVSSEDPAIVKAGEELLNRALDVLAELGATDFCGVIYSAMKKYMEPATEQGLSNSKAAVGRVVDRAAGLGINVSLEVVNRYETNVLNTGRQALSYLSDVKRPNLGVHLDTYHMNIEESDMFSPVLDTADALKYVHIGESHRGYLGTGSVDFDNFFKALGRIGYDGPVVFESFSSAVVAPDLSRMLGIWRNLWADNEELGAHANAFIRDKLTAIKTIELH 58.1

Which Residual activity (%) value is on record for Ketose 3-epimerase mutant 5: amino acid-substituted mutant of SEQ ID NO: 1 (protein, Arthrobacter histidinolovorans) MKIGCHGLVWTGRFDAEGIRYSVQKTKEAGFDLIEFPLMDPFSFDVATAKSALAEHGLSVSASLGLSEATDVSSEDPAIVKAGEELLNRALDVLAELGATDFCGVIYSAMKKYMEPATEQGLSNSKAAIGRVVDRAAGLGINVSLEVVNRYETNVLNTGRQALSYLSDVKRPNLGVHLDTYHMNIEESDMFSPVLDTAEVLKYVHIGESHRGYLGTGSVDFDNFFKALGRIGYDGPVVFESFSSAVVAPDLSRMLGIWRNLWADNEELGAHANAFIRDKLTAIKTIELH ? 85.1
